All values here come from patent US20200353062A1.

test.summary: Peptide assay and peptide impurities by RP-HPLC
Assay type: physicochemical
details: sized-vesicle preparation stored at 5° C. ± 3° C., 0 months

| ordered.residues | Peptide Assay (RP-HPLC) |
| --- | --- |
| LPPAWQPFL (Survivin HLA-B7) [SurB7, survivin peptide antigen [HLA-B7]] | 1.09 mg/mL |
| FTELTLGEF (Survivin HLA-A1 (modified)) [SurA1.T, survivin peptide antigen [HLA-A1]] | 1.03 mg/mL |
| RISTFKNWPK (Survivin HLA-A3 (modified)) [SurA3.K, survivin peptide antigen [HLA-A3], added after sizing] | 1.04 mg/mL |
| LMLGEFLKL (Survivin HLA-A2 (modified)) [SurA2.M, survivin peptide antigen [HLA-A2]] | 0.95 mg/mL |
| STFKNWPFL (Survivin HLA-A24) [SurA24, survivin peptide antigen [HLA-A24]] | 1.00 mg/mL |
